src = ChEMBL document CHEMBL3808334

Measured growth at 0.01 µM accompanies every entry in the list below.
System: NCI-H226
Assay: Growth inhibition of human NCI-H226 cells assessed as cell growth at 10^-8 M incubated for 48 hrs by sulforhodamine B assay
Format: functional
Conditions: NCI-H226, 48 h, read-out: Activity
Use % as the unit, but write only the number.

Some solved entries appear below for comparison.
1. Clc1ccc(-c2nc(Nc3ccc(-c4nc5ccccc5[nH]4)cc3)nc(N3CCOCC3)n2)cc1: 101
2. Fc1ccc(-c2nc(Nc3ccc(-c4nc5ccccc5[nH]4)cc3)nc(N3CCOCC3)n2)cc1: 100
3. c1ccc(-c2nc(Nc3ccc(-c4nc5ccccc5[nH]4)cc3)nc(N3CCOCC3)n2)cc1: 107

Could you now look at the following molecule, please?
Please look up its growth at 0.01 µM: c1ccc2[nH]c(-c3ccc(Nc4nc(N5CCCCC5)nc(N5CCOCC5)n4)cc3)nc2c1
84
